- assay_remarks: Brain uptake after oral administration in rats
- Type: in vivo
- setup_conditions: male, Sprague-Dawley, brain; rat; 25 mg/kg PO; 4 h; read-out: Concentration in the brain (peak)
- Protocol: Sample preparation: Following oral administration of 25 mg/kg of D-473 and D-142 in male Sprague Dawley rats, the blood samples were collected at different time points over a period of 8 h for analysis. Concentrations of D-473 and D-142 in plasma were quantitated using a set of calibration standards prepared in blank matrix that were processed in parallel. Plasma concentration evaluation was carried out by the CRO, Absorption System, PA. […]
measured_attribute: concentration at 4 h (ng/mL)
I only need the number, in ng/mL, no unit after it.

Value of measured concentration at 4 h for the entry COc1ccc(CN[C@@H]2CO[C@H](C(c3ccc(F)cc3)c3ccc(F)cc3)C[C@H]2O)cc1 [Compound D-473] : 345

====

- system_name: 5HT2b (Homo sapiens, UniProt P41595)
- Sequence (P41595 whole entry): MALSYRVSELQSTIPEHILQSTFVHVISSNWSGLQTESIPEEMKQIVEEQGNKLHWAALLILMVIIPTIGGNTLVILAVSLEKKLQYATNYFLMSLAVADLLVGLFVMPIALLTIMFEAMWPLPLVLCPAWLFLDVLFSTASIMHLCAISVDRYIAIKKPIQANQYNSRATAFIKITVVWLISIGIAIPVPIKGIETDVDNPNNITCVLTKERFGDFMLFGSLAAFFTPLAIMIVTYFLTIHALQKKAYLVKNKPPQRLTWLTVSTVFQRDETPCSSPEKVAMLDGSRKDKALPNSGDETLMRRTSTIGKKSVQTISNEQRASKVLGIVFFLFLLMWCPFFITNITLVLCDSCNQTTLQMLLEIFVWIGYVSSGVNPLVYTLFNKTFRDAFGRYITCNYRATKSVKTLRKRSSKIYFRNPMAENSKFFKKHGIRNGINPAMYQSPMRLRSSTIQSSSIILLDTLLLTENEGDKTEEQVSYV
measured_attribute: pKi
// pKi: -log10(molar conc.)

COc1ccc(CN[C@@H]2CO[C@H](C(c3ccc(F)cc3)c3ccc(F)cc3)C[C@H]2O)cc1 [Compound D-473] tested on 5HT2b (Homo sapiens, UniProt P41595) gave pKi: 6.22

====

- assay_remarks: Plasma concentration after oral administration in rats
- Format: in vivo
- setup_conditions: rat, male Sprague-Dawley rats, 25 mg/kg PO, 3% HPßCD in water, read-out: Average maximum plasma concentration, Cmax
measured_attribute: Cmax (ng/mL)
I only need the number, in ng/mL, no unit after it.

In [3]: df
Out[3]:
                            chemical_smiles  recorded_number
0  COc1ccc(CN[C@@H]2CO[C@H](C(c3ccc(F)cc3)c3ccc(F)cc3)C[C@H]2O)cc1              404

In the following, a different compound is considered.
Value of measured Cmax for the entry COc1ccc(CN[C@@H]2CO[C@H](C(c3ccccc3)c3ccccc3)C[C@H]2O)cc1 : 125

====

- system_name: Beta3 (Homo sapiens, UniProt P13945)
- Sequence (P13945 whole entry): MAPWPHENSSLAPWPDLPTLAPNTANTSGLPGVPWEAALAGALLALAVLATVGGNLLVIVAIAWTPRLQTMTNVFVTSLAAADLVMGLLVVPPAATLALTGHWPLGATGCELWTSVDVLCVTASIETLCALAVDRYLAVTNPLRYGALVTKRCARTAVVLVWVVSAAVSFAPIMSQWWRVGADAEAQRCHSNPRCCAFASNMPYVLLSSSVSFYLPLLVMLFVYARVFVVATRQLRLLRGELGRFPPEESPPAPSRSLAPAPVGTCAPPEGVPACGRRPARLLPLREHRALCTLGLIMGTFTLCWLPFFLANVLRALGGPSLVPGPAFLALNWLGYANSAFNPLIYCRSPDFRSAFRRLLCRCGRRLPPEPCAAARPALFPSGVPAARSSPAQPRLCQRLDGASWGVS
measured_attribute: Ki

COc1ccc(CN[C@@H]2CO[C@H](C(c3ccc(F)cc3)c3ccc(F)cc3)C[C@H]2O)cc1 tested on Beta3 (Homo sapiens, UniProt P13945) gave Ki: > 10 µM

====

- assay_remarks: Brain uptake after oral administration in rats
- Assay type: in vivo
- setup_conditions: male, Sprague-Dawley, brain and plasma; rat; 25 mg/kg PO; 4 h; read-out: Brain/plasma ratio
measured_attribute: Kp at 4 h

Value of measured Kp at 4 h for the entry COc1ccc(CN[C@@H]2CO[C@H](C(c3ccc(F)cc3)c3ccc(F)cc3)C[C@H]2O)cc1 : 1.54

====

- assay_remarks: Brain uptake after oral administration in rats
- Assay type: in vivo
- setup_conditions: male, Sprague-Dawley, brain and plasma; rat; 25 mg/kg PO; 2 h; read-out: Brain/plasma ratio
measured_attribute: Kp at 2 h
Field format: numeric only.

Value of measured Kp at 2 h for the entry COc1ccc(CN[C@@H]2CO[C@H](C(c3ccc(F)cc3)c3ccc(F)cc3)C[C@H]2O)cc1 : 0.76
